- Tested on: crabgrass, large
- Assay Text: Test C pre-/postemergence herbicide test
- Format: in vivo, Digitaria sanguinalis
- Conditions Used: Preemergence, 125 g ai/ha; scale 0 to 100
Property: Plant response rating, Crabgrass, Large; scope: individual molecules
Number only, no unit.

1) CC(C)c1cccc(C2CNC(=O)C2C(=O)Nc2cccc(F)c2F)c1 (centres unmarked) ... 95
2) O=C1NCC(c2ccc(F)c(F)c2)C1C(=O)Nc1ccc(F)c(F)c1F (centres unmarked) ... 98
3) O=C1NCC(c2ccc(OC(F)F)cc2)C1C(=O)Nc1cccc(F)c1F (racemic) ... 90
4) O=C1NCC(c2cccc(Br)c2)C1C(=O)Nc1ccc(F)c(F)c1F (centres unmarked) ... 95

Shifting focus to the molecule that follows.
Exercise: Report Plant response rating, Crabgrass, Large for O=C1NCC(c2cccc(OC(F)F)c2)C1C(=O)Nc1ccccc1F (centres unmarked) tested on crabgrass, large.
Solution: 98

These measurements were taken from patent US10294202B2.
